molecular target: Calcitonin gene-related peptide type 1 receptor (Homo sapiens); test: Antagonist activity against human CGRP1 expressed in HEK293 cells assessed as inhibition of human alpha-CGRP-promoted cAMP production; type: functional, cell-based; set-up: concentration or dose not given beside the values; conditions: concentration not given here
Where a SMILES comes first, the peptide text is derived from it.

- molecule: "CC(C)[C@H](NC(=O)[C@H](CC(=O)O)NC(=O)[C@@H](NC(=O)[C@@H]1CCCN1C(=O)[C@@H](NC(=O)[C@@H](N)Cc1ccccc1)C(C)C)[C@@H](C)O)C(=O)N[C@H]1CC[C@H]2CC[C@@H](C(=O)N[C@@H](Cc3ccccc3)C(=O)N[C@@H](C)C(=O)N[C@@H](Cc3ccccc3)C(N)=O)N2C1=O"
  units-of-measure: "%"
  inhibition: 70
- molecule: "CC(C)[C@H](NC(=O)[C@H](CC(=O)O)NC(=O)[C@@H](NC(=O)[C@@H]1CCCN1C(=O)[C@@H](NC(=O)[C@@H](N)Cc1ccccc1)C(C)C)[C@@H](C)O)C(=O)NCC(=O)N1CCC[C@H]1C(=O)N[C@@H](Cc1ccccc1)C(=O)N[C@@H](C)C(=O)N[C@@H](Cc1ccccc1)C(N)=O"
  units-of-measure: "%"
  inhibition: 68
- molecule: "CC(C)[C@H](NC(=O)[C@H](CC(=O)O)NC(=O)[C@@H](NC(=O)[C@@H]1CCCN1C(=O)[C@@H](NC(=O)N(N)Cc1ccccc1)C(C)C)[C@@H](C)O)C(=O)NCC(=O)N1CCC[C@H]1C(=O)N[C@@H](Cc1ccccc1)C(=O)N[C@@H](C)C(=O)N[C@@H](Cc1ccccc1)C(N)=O"
  units-of-measure: "%"
  inhibition: 69
- molecule: "CC(C)[C@H](NC(=O)N(CC(=O)O)NC(=O)[C@@H](NC(=O)[C@@H]1CCCN1C(=O)[C@@H](NC(=O)[C@@H](N)Cc1ccccc1)C(C)C)[C@@H](C)O)C(=O)NCC(=O)N1CCC[C@H]1C(=O)N[C@@H](Cc1ccccc1)C(=O)N[C@@H](C)C(=O)N[C@@H](Cc1ccccc1)C(N)=O (HELM PEPTIDE1{F.V.P.T.[O=C(O)CN(N[*:1])C(=O)[*:2]].V.G.P.F.A.F.[am]}$$$$V2.0)"
  units-of-measure: "%"
  inhibition: 59

This collection of values is drawn from ChEMBL document CHEMBL1142953.
